target-entity: UniProtKB P21980
Sequence (P21980 whole entry): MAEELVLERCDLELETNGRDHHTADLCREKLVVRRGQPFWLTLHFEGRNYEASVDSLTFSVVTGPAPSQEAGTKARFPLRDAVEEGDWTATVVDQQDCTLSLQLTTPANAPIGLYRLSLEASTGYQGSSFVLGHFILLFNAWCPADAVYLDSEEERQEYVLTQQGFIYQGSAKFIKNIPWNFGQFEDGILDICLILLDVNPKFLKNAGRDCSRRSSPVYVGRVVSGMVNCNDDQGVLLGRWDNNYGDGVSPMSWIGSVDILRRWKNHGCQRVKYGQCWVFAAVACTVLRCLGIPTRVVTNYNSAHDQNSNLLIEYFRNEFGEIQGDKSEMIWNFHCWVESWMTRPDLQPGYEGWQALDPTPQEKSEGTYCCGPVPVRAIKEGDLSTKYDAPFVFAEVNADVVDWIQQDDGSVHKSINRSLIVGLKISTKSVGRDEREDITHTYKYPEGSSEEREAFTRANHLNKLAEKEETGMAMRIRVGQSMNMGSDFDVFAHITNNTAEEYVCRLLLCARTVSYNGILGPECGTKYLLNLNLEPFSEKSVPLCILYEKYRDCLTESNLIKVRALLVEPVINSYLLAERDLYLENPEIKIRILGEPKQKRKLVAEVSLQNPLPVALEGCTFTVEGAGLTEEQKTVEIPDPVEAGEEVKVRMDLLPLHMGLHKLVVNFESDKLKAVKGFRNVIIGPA
procedure-summary: TG2 deamidation activity assay
Assay type: biochemical
recorded-endpoint: Ki

>  <molecule>
NCCSSCCN [cystamine]

>  <target-entity>
UniProtKB P21980

>  <observed-value>
> 600 µM

$$$$

These entries and their values trace back to paper PMC6008213.
